Tested on: gel-filtered platelets
Test: In vitro inhibition of thrombin-induced gel-filtered platelet aggregation
Assay type: cell-based
Conditions: Platelet; human gel-filtered platelets; agonist thrombin 50 μL of 1 unit/mL; read-out: Thrmb IC50 (Thrombin-induced aggregation of gel-filtered platelets)
Readout type: pIC50
// scale note: pIC50 = -log10(conc_M); give the bare number

Data request: Item under review: Cc1ccccc1Cn1cc(CN2CCCC2)c2ccc(NC(=O)N[C@@H](Cc3c(F)c(F)c(F)c(F)c3F)C(=O)N[C@@H](CCCNC(=N)N)C(=O)NCc3ccccc3)cc21 [Compound 50] . Reported pIC50?
Data returned: 6.10

Data request: Continue with NCCC[C@H](NC(=O)[C@H](Cc1ccc(F)c(F)c1)NC(=O)Nc1ccc2c(CN3CCCC3)cn(Cc3c(Cl)cccc3Cl)c2c1)C(=O)NCc1cccs1 [Compound 113]
Data returned: 6.14

Data request: Moving on to the next molecule: CC(C)NCCCC[C@H](NC(=O)[C@H](Cc1ccc(F)c(F)c1)NC(=O)Nc1ccc2c(CN3CCCCC3)cn(Cc3c(Cl)cccc3Cl)c2c1)C(=O)NCc1ccccc1 [Compound 67]
Data returned: 6.38

Data request: Same question, CCCN(CCC)Cc1cn(Cc2c(Cl)cccc2Cl)c2cc(NC(=O)N[C@@H](Cc3ccc(OC)cc3)C(=O)N[C@@H](CCCNC(=N)N)C(=O)NCc3ccccc3)ccc12 [Compound 41] this time
Data returned: 5.32

Data request: Follow-up entry: NC(=O)NCCC[C@H](NC(=O)[C@H](Cc1cccc(F)c1)NC(=O)Nc1ccc2c(CN3CCCC3)cn(Cc3c(Cl)cccc3Cl)c2c1)C(=O)NCc1ccccc1 [Compound 77]
Data returned: 4.53
